These molecules were tested on GRK2 (Homo sapiens, UniProt P25098); pIC50 is the recorded read-out.
Sequence (P25098 whole entry): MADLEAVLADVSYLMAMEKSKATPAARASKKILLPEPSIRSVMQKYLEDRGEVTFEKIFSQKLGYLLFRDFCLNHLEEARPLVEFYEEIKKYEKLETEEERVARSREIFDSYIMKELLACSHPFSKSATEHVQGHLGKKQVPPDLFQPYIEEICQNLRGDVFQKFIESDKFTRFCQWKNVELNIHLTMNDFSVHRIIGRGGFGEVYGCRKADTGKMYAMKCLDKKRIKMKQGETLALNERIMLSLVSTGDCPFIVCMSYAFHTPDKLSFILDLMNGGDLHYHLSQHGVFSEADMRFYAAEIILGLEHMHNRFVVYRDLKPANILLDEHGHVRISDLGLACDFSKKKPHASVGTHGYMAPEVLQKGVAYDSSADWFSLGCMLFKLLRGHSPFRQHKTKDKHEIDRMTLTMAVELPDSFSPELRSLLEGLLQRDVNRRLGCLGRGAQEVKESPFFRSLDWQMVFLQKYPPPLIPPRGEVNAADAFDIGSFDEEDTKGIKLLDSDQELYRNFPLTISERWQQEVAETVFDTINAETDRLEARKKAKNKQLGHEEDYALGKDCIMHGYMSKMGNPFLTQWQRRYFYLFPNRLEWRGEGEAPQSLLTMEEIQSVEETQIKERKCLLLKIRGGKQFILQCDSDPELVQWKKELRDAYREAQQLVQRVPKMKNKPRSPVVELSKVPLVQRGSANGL
pIC50: −log10 of the molar value.

Look over these answered cases.
Ask: Which pIC50 is reported for this molecule? "COc1ccc([C@@H](C)NC(=O)/C(C#N)=C/c2c[nH]c3ncc(-c4ccc(CN(C)C)cc4)cc23)cc1OC"
Result: 5.00 to 6.00

Ask: Moving on to "COc1ccc([C@@H](C)NC(=O)/C(C#N)=C/c2c[nH]c3ncc(-c4ccc(F)cc4OC)cc23)cc1OC"
Result: < 5.00

Ask: Here is the next molecule: "COc1ccc([C@@H](C)NC(=O)/C(C#N)=C/c2c[nH]c3ncc(-c4ccc(OCCN(C)C)cc4)cc23)cc1OC"
Result: 6.00 to 6.30

Ask: How about this molecule: "COc1ccc([C@@H](C)NC(=O)/C(C#N)=C/c2c[nH]c3ncc(-c4ccccc4CN4CCCCC4)cc23)cc1OC"
Result: < 5.00

Further cases:
Ask: Recorded pIC50 for "COc1ccc([C@@H](C)NC(=O)/C=C/c2c[nH]c3ncc(-c4cccc(S(=O)(=O)N(C)C)c4)cc23)cc1OC" , please?
Result: 5.00 to 6.00

Ask: Next: "COc1cc([C@@H](C)NC(=O)/C(C#N)=C/c2c[nH]c3ncc(-c4cnn(C)c4)cc23)ccc1F"
Result: 7.00 to 7.30

Ask: What do we get for "COc1ccc([C@@H](C)NC(=O)/C(C#N)=C/c2c[nH]c3ncc(-c4cccc(S(C)(=O)=O)c4)cc23)cc1OC" ?
Result: < 5.00

====

System: GRK2 (Homo sapiens)
pIC50: −log10 of the molar value.
Each item that follows carries a reported pIC50.

Ask: Look up pIC50: "COc1ccc([C@@H](C)NC(=O)/C=C/c2c[nH]c3ncc(-c4cccc(N5CCN(C)CC5)c4)cc23)cc1OC"
Result: 5.00 to 6.00

Ask: Also check "C[C@@H](NC(=O)/C(C#N)=C/c1c[nH]c2ncccc12)c1cccc(Cl)c1"
Result: 6.30 to 7.00

Ask: Consider next the molecule "C[C@@H](NC(=O)/C(C#N)=C/c1c[nH]c2ncc(-c3cnn(C)c3)cc12)c1ccc2c(c1)OCO2" in the same way.
Result: 6.00 to 6.30

Ask: What do we get for "C[C@@H](NC(=O)/C(C#N)=C/c1c[nH]c2ncc(Br)cc12)c1ccc(F)cc1" ?
Result: 5.00 to 6.00

Ask: What do you get for "COc1ccc([C@@H](C)NC(=O)/C(C#N)=C/c2c[nH]c3ncc(-c4ccccc4)cc23)cc1OC" ?
Result: < 5.00

Ask: Would you mind doing "COc1ccc([C@@H](C)NC(=O)/C=C/c2c[nH]c3nccc(-c4ccc(CN5CCN(C)CC5)cc4)c23)cc1OC" as well?
Result: 5.00 to 6.00

Ask: Another molecule: "COc1ccc([C@@H](C)NC(=O)/C(C#N)=C/c2c[nH]c3ncc(C(=O)N4CCN(C)CC4)cc23)cc1OC"
Result: < 5.00

Ask: Repeat with "COc1ccc([C@@H](C)NC(=O)/C(C#N)=C/c2c[nH]c3ncc(-c4cccnc4)cc23)cc1OC"
Result: < 5.00

Continuing:
Ask: What does the record list as pIC50 for "COc1ccc([C@@H](C)NC(=O)/C=C/c2c[nH]c3nccc(-c4ccc(C(N)=O)cc4)c23)cc1OC" ?
Result: < 5.00

Ask: Subsequent entry: "COc1ccc([C@@H](C)NC(=O)/C(C#N)=C/c2c[nH]c3ncc(-c4cn(C)cn4)cc23)cc1OC"
Result: 5.00 to 6.00

Ask: Now consider "COc1ccc([C@@H](C)NC(=O)/C(C#N)=C/c2c[nH]c3ncc(OCCN(C)C)cc23)cc1OC" .
Result: 5.00 to 6.00

Ask: Another molecule to look at: "C[C@@H](NC(=O)/C(C#N)=C/c1c[nH]c2ncc(-c3cnn(C)c3)cc12)c1ccc(F)cc1"
Result: 6.30 to 7.00

Ask: And for "Cc1c(-c2cnn(C)c2)cnc2[nH]cc(/C=C(\C#N)C(=O)N[C@H](C)c3ccc(Cl)cc3)c12" ?
Result: 5.00 to 6.00

Ask: Please do the same for "C[C@@H](NC(=O)/C(C#N)=C/c1c[nH]c2ncc(-c3cnn(C)c3)cc12)c1ccc(Cl)cc1" as well.
Result: 5.00 to 6.00

Ask: Also need "COc1ccc([C@@H](C)NC(=O)/C=C/c2c[nH]c3nccc(-c4ccc(C5CCN(C)CC5)cc4)c23)cc1OC" , thanks.
Result: 5.00 to 6.00

====

Lab note: IC50 readings collected with GRK2 (Homo sapiens, UniProt P25098) for the following compounds.

Ask: Can you share its IC50? I mean this compound: "N#C/C(=C\c1c[nH]c2ncccc12)C(=O)NCc1cccc(CS(N)(=O)=O)c1"
Result: 1 to 10 µM

New cases:
Ask: What value of IC50 has been reported for the following compound? "COc1ccc([C@@H](C)NC(=O)/C(C#N)=C/c2c[nH]c3ncc(Nc4ccccc4)cc23)cc1OC"
Result: 1 to 10 µM

Ask: Repeat for the following compound: "COc1ccc([C@@H](C)NC(=O)/C=C/c2c[nH]c3ncc(-c4cccc(C#N)c4)cc23)cc1OC"
Result: > 10 µM

Ask: Same question for "COc1ccc([C@@H](C)NC(=O)/C=C/c2c[nH]c3nccc(-c4cnn(C)c4)c23)cc1OC" please.
Result: > 10 µM

Ask: What would you report for "COc1ccc([C@@H](C)NC(=O)/C=C/c2c[nH]c3ncc(-c4cc(S(C)(=O)=O)ccn4)cc23)cc1OC" ?
Result: 1 to 10 µM

Ask: Now consider "COc1ccc([C@@H](C)NC(=O)/C(C#N)=C/c2c[nH]c3ncc(-c4ccccc4CN(C)C)cc23)cc1OC" and answer again.
Result: > 10 µM

Ask: Cool, now "COc1ccc([C@@H](C)NC(=O)/C(C#N)=C/c2c[nH]c3ncc(O[C@@H]4CCOC4)cc23)cc1OC"
Result: 0.5 to 1 µM

Ask: Moving on to the next compound: "COc1ccc([C@@H](C)NC(=O)/C=C/c2c[nH]c3ncc(-c4cccc(CS(C)(=O)=O)c4)cc23)cc1OC"
Result: 1 to 10 µM

Ask: # repeat for "N#C/C(=C\c1c[nH]c2ncc(C(F)(F)F)cc12)C(=O)NCc1ccccc1"
Result: > 10 µM

Ask: Check "COc1ccc([C@@H](C)NC(=O)/C(C#N)=C/c2c[nH]c3ncc(-c4cnn(C5COC5)c4)cc23)cc1OC" too.
Result: 1 to 10 µM

Ask: Record: N#C/C(=C\c1c[nH]c2ncccc12)C(=O)NC(C#N)c1ccccc1 (centres unmarked)
Result: > 10 µM

Ask: How about CC(NC(=O)/C(C#N)=C/c1c[nH]c2ncccc12)c1ccccc1-n1cccn1 (centres unmarked) ?
Result: 1 to 10 µM

Ask: Request: "C[C@@H](NC(=O)/C(C#N)=C/c1c[nH]c2ncc(-c3cnn(C)c3)cc12)c1cccc(Cl)c1"
Result: 0.1 to 0.5 µM

Ask: "COc1ccc([C@@H](C)NC(=O)/C(C#N)=C/c2c[nH]c3ncc(-c4ccc(F)c(S(C)(=O)=O)c4)c(C)c23)cc1OC" , same question.
Result: > 10 µM

Ask: Next: "C[C@@H](NC(=O)/C(C#N)=C/c1c[nH]c2ncc(-c3ccc(N4CCN(C)CC4)cc3)cc12)c1ccc(F)cc1"
Result: 0.1 to 0.5 µM

Ask: What do you have for "COc1ccc([C@@H](C)NC(=O)/C(C#N)=C/c2c[nH]c3ncc(-c4cnn5ccccc45)cc23)cc1OC" ?
Result: 1 to 10 µM

Ask: What about "COc1ccc([C@@H](CO)NC(=O)/C(C#N)=C/c2c[nH]c3ncc(-c4cnn(C)c4)cc23)cc1OC" ?
Result: 1 to 10 µM

====

Consider the following IC50 values measured on GRK2 (Homo sapiens).

# count of solved cases: 7
Ask: Consider the molecule shown here: "C[C@@H](NC(=O)/C(C#N)=C/c1c[nH]c2ncccc12)c1ccc(Cl)cc1" What is its recorded IC50?
Result: 500 to 1000 nM

Ask: "COc1ccc([C@@H](C)NC(=O)/C(C#N)=C/c2c[nH]c3ncc(-c4cn(C)nc4C)cc23)cc1OC" ?
Result: 1000 to 10000 nM

Ask: For "Cc1nn(C)c2cc([C@@H](C)NC(=O)/C(C#N)=C/c3c[nH]c4ncc(-c5cnn(C)c5)cc34)ccc12" then?
Result: > 10000 nM

Ask: Now consider "N#C/C(=C\c1c[nH]c2ncccc12)C(=O)NCc1ccc(C#N)cc1" .
Result: 1000 to 10000 nM

Ask: Do the same for "COc1ccc([C@@H](C)NC(=O)/C=C/c2c[nH]c3ncc(OC4CCS(=O)(=O)CC4)cc23)cc1OC" please
Result: > 10000 nM

Ask: Please do the same for COc1ccc(C(CCN(C)C)NC(=O)/C(C#N)=C/c2c[nH]c3ncccc23)cc1 (centres unmarked) as well.
Result: 500 to 1000 nM

Ask: Also need "CC[C@@H](NC(=O)/C(C#N)=C/c1c[nH]c2ncc(Cl)cc12)c1ccccc1" , thanks.
Result: 1000 to 10000 nM

Now for a further molecule.
Ask: // returns reported IC50 for input COc1ccc([C@@H](C)NC(=O)C(C#N)=Cc2c[nH]c3ncc(-c4ccc(CCN(C)C)cc4)cc23)cc1OC (stereo in doubt)
Result: 1000 to 10000 nM
